- tgt: T1, monkey LAG-3 on cells (HEK293-cLAG-3 stable cell line) (monkey, UniProt P18627 24-525 (human entry))
- T1 construct: Full-length monkey (Chinese monkey) LAG-3 gene expressed on HEK293 cells
- T1 chain: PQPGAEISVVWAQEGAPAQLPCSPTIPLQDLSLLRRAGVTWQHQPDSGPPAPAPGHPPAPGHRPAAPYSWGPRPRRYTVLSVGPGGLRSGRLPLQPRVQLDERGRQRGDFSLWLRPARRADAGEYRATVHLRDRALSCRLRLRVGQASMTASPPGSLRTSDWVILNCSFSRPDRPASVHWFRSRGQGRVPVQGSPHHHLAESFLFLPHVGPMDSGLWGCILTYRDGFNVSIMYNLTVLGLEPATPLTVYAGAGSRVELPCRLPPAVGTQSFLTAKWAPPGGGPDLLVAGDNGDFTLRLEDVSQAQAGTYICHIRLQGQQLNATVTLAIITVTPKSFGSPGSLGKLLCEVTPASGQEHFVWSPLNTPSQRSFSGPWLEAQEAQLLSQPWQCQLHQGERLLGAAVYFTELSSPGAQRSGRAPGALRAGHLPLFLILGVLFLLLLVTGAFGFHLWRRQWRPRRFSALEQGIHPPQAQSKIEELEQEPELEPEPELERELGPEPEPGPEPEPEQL
- experiment notes: FACS, HEK293-cLAG-3, antibody 0.013 nM
Mean fluorescence intensity by entry:
# output: bare number, no unit

INSERT INTO results (binder, reported_result) VALUES
  ('556F6B8 mouse-human chimeric antibody (antibody, V domains shown, also called mAb123-556F6B8; 556F8B8) VH: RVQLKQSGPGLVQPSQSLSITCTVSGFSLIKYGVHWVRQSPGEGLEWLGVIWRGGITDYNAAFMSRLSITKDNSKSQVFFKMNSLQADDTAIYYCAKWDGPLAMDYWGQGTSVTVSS VL: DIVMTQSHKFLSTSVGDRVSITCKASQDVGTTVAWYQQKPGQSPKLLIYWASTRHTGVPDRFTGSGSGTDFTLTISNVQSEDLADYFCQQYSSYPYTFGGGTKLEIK', 3.46);

Task item: Item 409D4E10 mouse-human chimeric antibody (antibody, V domains shown, also called mAb112-409D4E10) VH: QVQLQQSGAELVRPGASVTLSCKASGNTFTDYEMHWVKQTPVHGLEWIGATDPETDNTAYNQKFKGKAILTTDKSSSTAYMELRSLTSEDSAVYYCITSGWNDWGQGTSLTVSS VL: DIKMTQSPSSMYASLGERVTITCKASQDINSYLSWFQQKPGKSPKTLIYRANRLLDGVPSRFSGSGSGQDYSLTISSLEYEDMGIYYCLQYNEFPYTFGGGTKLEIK has what recorded Mean fluorescence intensity?
Reply: 3.36

Task item: Any idea what its Mean fluorescence intensity is? The binder is 105F1E10 mouse-human chimeric antibody (antibody, V domains shown, also called mAb009-105F1E10) VH: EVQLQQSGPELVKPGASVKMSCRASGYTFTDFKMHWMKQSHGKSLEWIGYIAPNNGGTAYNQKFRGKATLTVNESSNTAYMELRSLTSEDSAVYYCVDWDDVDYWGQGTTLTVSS VL: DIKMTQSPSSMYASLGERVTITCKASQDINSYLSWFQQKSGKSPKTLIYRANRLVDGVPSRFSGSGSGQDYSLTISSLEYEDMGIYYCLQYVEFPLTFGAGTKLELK
Reply: 2.89

Task item: Recorded Mean fluorescence intensity of 409B11E12 mouse-human chimeric antibody (antibody, V domains shown, also called mAb104-409B11E12) VH: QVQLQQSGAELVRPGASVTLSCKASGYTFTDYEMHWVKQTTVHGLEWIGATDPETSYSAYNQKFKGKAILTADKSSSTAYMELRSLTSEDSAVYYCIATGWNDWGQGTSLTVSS VL: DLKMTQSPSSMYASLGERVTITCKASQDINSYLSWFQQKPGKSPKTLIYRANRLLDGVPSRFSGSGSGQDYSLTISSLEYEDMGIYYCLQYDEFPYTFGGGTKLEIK , please.
Reply: 3.39
